Hey, just so you know, these numbers are from the MegaScale stability set (Tsuboyama et al. 2023).

B1: HEEH_KT_rd6_0007 (parent)
chain: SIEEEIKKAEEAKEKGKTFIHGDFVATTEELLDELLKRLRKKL

variants of: B1; assay: folding stability dG (cDNA display proteolysis); higher = more stable; conditions: PBS, room temperature
Collected folding stability dG values appear next to each entry.

# variant name, unit name, folding stability dG
data = [
    ("D23P", "kcal/mol", 0.958),
    ("D23N", "kcal/mol", 1.4),
    ("E4T", "kcal/mol", 0.909),
    ("H21D", "kcal/mol", 0.707),
    ("E4Y", "kcal/mol", 1.06),
    ("T27Q", "kcal/mol", 0.865),
    ("K13R", "kcal/mol", 1.3),
    ("T18G", "kcal/mol", 1.23),
    ("I20Q", "kcal/mol", 1.27),
    ("E29M", "kcal/mol", 1.63),
    ("V25G", "kcal/mol", 0.704),
    ("I20C", "kcal/mol", 2.04),
    ("K7I", "kcal/mol", 1.01),
]
